System: MDA-MB-468 breast
assay.remarks: NCI tumour cell line growth inhibition, 48 h; in the data active means GI50 below about 0.43 µM; inactive means the rest
Outcome codes: Y = active, N = inactive

>  <compound>
Oc1ccc(F)c(Nc2nc(SCCN3CCOCC3)nc3c2cnn3CC(Cl)c2ccc(Br)cc2)c1 (stereo not given)

>  <label.class>
N

$$$$
>  <compound>
C[C@@]1(c2ncncc2F)NC(=O)c2cc(-c3cn[nH]c3)ccc21

>  <label.class>
N

$$$$
>  <compound>
O=C1/C(=C/c2ccc([N+](=O)[O-])s2)Oc2ccccc21

>  <label.class>
Y

$$$$
>  <compound>
BrC(Br)(Br)c1cnc2ccccc2n1

>  <label.class>
N

$$$$
>  <compound>
C=CC[Se]C(=O)Cc1c(C)n(C(=O)c2ccc(Cl)cc2)c2ccc(OC)cc12

>  <label.class>
N

$$$$
>  <compound>
N=C(N)c1ccc(-c2ccc(-c3ccc(Cl)cn3)s2)cc1

>  <label.class>
N

$$$$
>  <compound>
COc1cc(/C=C/C(=O)c2ccc(C)cc2)ccc1Oc1nc(Nc2ccc(F)cc2)nc(N(C)C)n1

>  <label.class>
N

$$$$
>  <compound>
COc1ccc2[nH]c(-c3cccc(N(C)C)c3)cc(=O)c2c1

>  <label.class>
N

$$$$
>  <compound>
CCn1c(-c2nonc2N)nc2c(C#CC(C)(C)O)nc(O[C@@H](CN)c3ccccc3)cc21

>  <label.class>
Y

$$$$
>  <compound>
CN1CCN(Cc2ccc(NC(=O)c3[nH]ncc3Nc3ncnc4sccc34)cc2)CC1

>  <label.class>
Y

$$$$
>  <compound>
CCOC(=O)N1C/C(=C/c2ccc(OC)cc2)C(=O)/C(=C/c2ccc(OC)cc2)C1

>  <label.class>
N

$$$$
>  <compound>
COc1cc(-c2nc(SCC(=O)Nc3ccc(C(C)=O)cc3)[nH]c(=O)c2C#N)cc(OC)c1OC

>  <label.class>
N

$$$$
>  <compound>
COc1cc2nc(-c3ccc(-n4cncc4-c4ccc(N)cc4)cc3)sc2c(OC)c1OC

>  <label.class>
N

$$$$
>  <compound>
Oc1ccc(/C=N/Nc2nc3ccccc3s2)c(O)c1

>  <label.class>
N

$$$$
>  <compound>
COc1ccc(C2C(c3ccccc3)C(=O)N2c2cc(OC)c(OC)c(OC)c2)cc1I (stereo not given)

>  <label.class>
Y

$$$$

###

Tested on: MDA-MB-468 breast
assay.remarks: NCI tumour cell line growth inhibition, 48 h
Label scheme for TGI: lower than 3 µM is class 0, 3 µM and above is class 1.

>  <compound>
BrC(Br)(Br)c1cnc2ccccc2n1

>  <tgt>
MDA-MB-468 breast

>  <label.class>
class 0

$$$$
>  <compound>
O=C(NCCCNC(=O)OCc1ccc2c(Br)cc(Br)c(O)c2n1)OCc1ccc2c(Br)cc(Br)c(O)c2n1

>  <tgt>
MDA-MB-468 breast

>  <label.class>
class 1

$$$$
>  <compound>
COc1cc(-c2nc(SCC(=O)Nc3ccc(C(C)=O)cc3)[nH]c(=O)c2C#N)cc(OC)c1OC

>  <tgt>
MDA-MB-468 breast

>  <label.class>
class 1

$$$$
>  <compound>
CC[C@@H](C)[C@H]([C@H](CC(=O)N1CCC[C@@H]1[C@@H](OC)[C@H](C)C(=O)N[C@H](Cc1ccccc1)c1nccs1)OC)N(C)C(=O)[C@H](NC(=O)[C@@H](C(C)C)N(C)C)C(C)C

>  <tgt>
MDA-MB-468 breast

>  <label.class>
class 1

$$$$
>  <compound>
CN(C)CCOc1nc2c3cccnc3cc(-c3cccc(Cl)c3)c2c2ncccc12

>  <tgt>
MDA-MB-468 breast

>  <label.class>
class 0

$$$$
>  <compound>
Oc1ccc(/C=N/Nc2nc3ccccc3s2)c(O)c1

>  <tgt>
MDA-MB-468 breast

>  <label.class>
class 1

$$$$
>  <compound>
N=C(N)c1ccc(-c2ccc(-c3ccc(Cl)cn3)s2)cc1

>  <tgt>
MDA-MB-468 breast

>  <label.class>
class 1

$$$$
>  <compound>
COc1ccc2[nH]c(-c3cccc(N(C)C)c3)cc(=O)c2c1

>  <tgt>
MDA-MB-468 breast

>  <label.class>
class 1

$$$$
>  <compound>
O=C(NCCN1CCOCC1)Nc1ccc(-c2cc3c(Nc4ccc(Oc5cccc(C(F)(F)F)c5)c(Cl)c4)ncnc3s2)cc1

>  <tgt>
MDA-MB-468 breast

>  <label.class>
class 0

$$$$
>  <compound>
CCCCN(CCCC)CC(C)(C)C(O)c1ccc(OC)c2ccccc12 (centres undefined)

>  <tgt>
MDA-MB-468 breast

>  <label.class>
class 1

$$$$
>  <compound>
CCCC1CCC(O)(C(C)(O)C(=O)NC2C(=O)N3NCCCC3C(=O)N(O)C(C)C(=O)N3NCCCC3C(=O)N3NCC(O)CC3C(=O)NC(C)C(=O)OC2C(C)C)OC1CC (centres undefined)

>  <tgt>
MDA-MB-468 breast

>  <label.class>
class 1

$$$$
>  <compound>
C[C@@]1(c2ncncc2F)NC(=O)c2cc(-c3cn[nH]c3)ccc21

>  <tgt>
MDA-MB-468 breast

>  <label.class>
class 1

$$$$
>  <compound>
COc1cnc2c(c1)C(=O)c1c-2n(CCCN2CCNCC2)c(=O)c2cc(Cl)ccc12

>  <tgt>
MDA-MB-468 breast

>  <label.class>
class 0

$$$$
>  <compound>
C=CC[Se]C(=O)Cc1c(C)n(C(=O)c2ccc(Cl)cc2)c2ccc(OC)cc12

>  <tgt>
MDA-MB-468 breast

>  <label.class>
class 1

$$$$

###

Tested on: MDA-MB-468 breast
assay.remarks: NCI tumour cell line growth inhibition, 48 h
# TGI annotations

>  <compound>
O=C1C=CN(C2OC(CO)C(O)C2O)C(=O)C1 (stereo unspecified)

>  <tgt>
MDA-MB-468 breast

>  <unit.tag>
µM

>  <comparator>
>

>  <TGI>
2500

$$$$
>  <compound>
COc1cccc(Cn2cc3c(c2)-c2oncc2CC3)c1

>  <tgt>
MDA-MB-468 breast

>  <unit.tag>
µM

>  <comparator>
=

>  <TGI>
0.582

$$$$
>  <compound>
CCCC(=O)NC(c1ccc2c(c1)OCO2)c1ccc2cccnc2c1O (stereo unspecified)

>  <tgt>
MDA-MB-468 breast

>  <unit.tag>
µM

>  <comparator>
=

>  <TGI>
2.53

$$$$
>  <compound>
CCCC[P+](c1ccccc1)(c1ccccc1)c1ccccc1

>  <tgt>
MDA-MB-468 breast

>  <unit.tag>
µM

>  <comparator>
=

>  <TGI>
2.37

$$$$
>  <compound>
Cc1ccc(S(=O)(=O)NC(CCC(=O)Nc2ccccc2)C(=O)Nc2ccccc2)cc1 (stereo unspecified)

>  <tgt>
MDA-MB-468 breast

>  <unit.tag>
µM

>  <comparator>
=

>  <TGI>
1.13

$$$$
>  <compound>
Cc1ccccc1-n1c(/C=C\c2ccccn2)nc2ccccc2c1=O

>  <tgt>
MDA-MB-468 breast

>  <unit.tag>
µM

>  <comparator>
=

>  <TGI>
32.2

$$$$
